- study_target: T1, TP53 R175H peptide on HLA-A*02:01 (human)
- T1 peptide: HMTEVVRHC
- assay_info: multimer staining
parameter_measured: binding result

TCR 1A (TCR, V domains shown) Valpha: SQQGEEDPQALSIQEGENATMNCSYKTSINNLQWYRQNSGRGLVHLILIRSNEREKHSGRLRVTLDTSKKSSSLLITASRAADTASYFCATGSNYGGSQGNLIFGKGTKLSVKP Vbeta: EAGVAQSPRYKIIEKRQSVAFWCNPISGHATLYWYQQILGQGPKLLIQFQNNGVVDDSQLPKDRFSAERLKGVDSTLKIQPAKLEDSAVYLCASSLDYGSSYEQYFGPGTRLTVT ... recognises
TCR 1B (TCR, V domains shown) Valpha: AQKITQTQPGMFVQEKEAVTLDCTYDTSDPSYGLFWYKQPSSGEMIFLIYQGSYDQQNATEGRYSLNFQKARKSANLVISASQLGDSAMYFCAMREGFSGGYNKLIFGAGTRLAVHP Vbeta: DAGVTQSPTHLIKTRGQQVTLRCSPISGHKSVSWYQQVLGQGPQFIFQYYEKEERGRGNFPDRFSARQFPNYSSELNVNALLLGDSALYLCASSDDTGTTKSSGANVLTFGAGSRLTVL ... recognises
TCR 3A (TCR, V domains shown) Valpha: GEDVEQSLFLSVREGDSSVINCTYTDSSSTYLYWYKQEPGAGLQLLTYIFSNMDMKQDQRLTVLLNKKDKHLSLRIADTQTGDSAIYFCAEISANQAGTALIFGKGTTLSVSS Vbeta: DTGVSQNPRHKITKRGQNVTFRCDPISEHNRLYWYRQTLGQGPEFLTYFQNEAQLEKSRLLSDRFSAERPKGSFSTLEIQRTEQGDSAMYLCASSPLDSYQETQYFGPGTRLLVL ... recognises
